Tested on: morningglory (Ipomoea spp.)
Assay: Test A pre-/postemergence greenhouse herbicide test
Type: in vivo
Settings: Ipomoea, post-emergence, 240 h; Postemergence, 125 g ai/ha; 0 to 100 scale (0 no effect, 100 complete control), approx. 10 d; read-out: Plant response rating, Morningglory
pest or weed control at 125 g/ha less than 90% is rule met; pest or weed control at 125 g/ha greater than or equal to 90% is rule not met.

{"molecule": "Cc1cc(Oc2ccnc(C(F)(F)F)c2)nn(-c2ccc(C(F)(F)F)cc2)c1=O [Compound 6]", "assignedLabel": "rule met"}
{"molecule": "CCOc1cc(=O)n(-c2ccc(F)cc2)nc1C(O)c1ccnc(C(F)(F)F)c1 (stereo not drawn) [Compound 23]", "assignedLabel": "rule met"}
{"molecule": "CCOc1cc(=O)n(-c2ccc(F)cc2)nc1C(=O)c1ccnc(C(F)(F)F)c1 [Compound 22]", "assignedLabel": "rule met"}
{"molecule": "COc1cc(=O)n(-c2ccc(F)cc2)nc1Cc1ccnc(C(F)(F)F)c1 [Compound 17]", "assignedLabel": "rule not met"}

---

Listed compounds paired with reported Plant response rating
System: chickweed (common chickweed, Stellaria media)
Experiment: Test C postemergence greenhouse herbicide test
Format: in vivo
Conditions: 62 g ai/ha
Text: […]

{"compound": "Cc1cc(=O)n(-c2ccc(F)cc2)nc1Oc1ccnc(C(F)(F)F)c1 [Compound 14]", "Plant response rating": 35}
{"compound": "COc1cc(=O)n(-c2ccc(F)cc2)nc1Cc1ccnc(C(F)(F)F)c1 [Compound 17]", "Plant response rating": 85}
{"compound": "Cc1cc(=O)n(-c2ccc(F)cc2)nc1Cc1ccnc(C(F)(F)F)c1 [Compound 1]", "Plant response rating": 45}
{"compound": "Cc1cc(Oc2ccnc(C(F)(F)F)c2)nn(-c2ccc(C(F)(F)F)cc2)c1=O [Compound 6]", "Plant response rating": 95}

---

Tested on: barnyardgrass (Echinochloa crus-galli)
Assay: Test C pre-/postemergence greenhouse herbicide test
Type: in vivo
Conditions: Barnyardgrass; Postemergence; 250 g ai/ha
Listed molecules paired with reported Plant response rating

{"structureString": "Cc1cc(=O)n(-c2ccc(C(F)(F)F)cc2)nc1Cc1ccnc(C(F)(F)F)c1", "Plant response rating": 25}
{"structureString": "COc1cc(=O)n(-c2ccc(F)cc2)nc1Cc1ccnc(C(F)(F)F)c1", "Plant response rating": 35}
{"structureString": "Cc1cc(=O)n(-c2ccc(F)cc2)nc1Cc1ccnc(C(F)(F)F)c1", "Plant response rating": 10}

---

Listed compounds paired with reported pest or weed control at 125 g/ha
Test system: foxtail, giant (giant foxtail, Setaria faberii)
Assay: Test A pre-/postemergence greenhouse herbicide test
Type: in vivo
Details: Setaria faberi, pre-emergence, 240 h; Preemergence, 125 g ai/ha; 0 to 100 scale (0 no effect, 100 complete control), approx. 10 d; read-out: Plant response rating, Foxtail, Giant

{"structureString": "Cc1cc(=O)n(-c2ccc(F)cc2)nc1Cn1ccc(C(F)(F)F)n1", "pest or weed control at 125 g/ha, %": 0}
{"structureString": "CCOc1cc(=O)n(-c2ccc(F)cc2)nc1Cc1ccnc(C(F)(F)F)c1", "pest or weed control at 125 g/ha, %": 100}
{"structureString": "COc1cc(=O)n(-c2ccc(F)cc2)nc1Cc1ccnc(C(F)(F)F)c1", "pest or weed control at 125 g/ha, %": 100}
{"structureString": "Cc1cc(=O)n(-c2ccc(F)cc2)nc1Oc1ccnc(C(F)(F)F)c1", "pest or weed control at 125 g/ha, %": 90}
